target: Prostaglandin G/H synthase 2 (Ovis aries); test: Inhibition of ovine COX-2 colorimetric enzyme immunoassay
Reported Metric: IC50 (nM)
Give your result in nM as a bare value.

COc1ccc2cc(C(C)C(=O)O/N=C(\N)c3ccc(Cl)cc3)ccc2c1 (configuration not stated) :: 7.2

Attention now shifts to the item below.
Ask: Please state recorded IC50 (tested on Prostaglandin G/H synthase 2 (Ovis aries)) of COc1ccc2cc(C(C)C(=O)O/N=C(\N)c3ccc(OC)c(OC)c3)ccc2c1 (configuration not stated)
Result: 6.4

----------
molecular target: Prostaglandin G/H synthase 2 (Homo sapiens) (UniProt P35354); assay: Binding affinity to human recombinant COX-2 assessed as inhibition constant preincubated for 5 mins followed by arachidonic acid addition measured every 30 sec for 10 mins by fluorescence based assay
Sequence (P35354 whole entry, looked up): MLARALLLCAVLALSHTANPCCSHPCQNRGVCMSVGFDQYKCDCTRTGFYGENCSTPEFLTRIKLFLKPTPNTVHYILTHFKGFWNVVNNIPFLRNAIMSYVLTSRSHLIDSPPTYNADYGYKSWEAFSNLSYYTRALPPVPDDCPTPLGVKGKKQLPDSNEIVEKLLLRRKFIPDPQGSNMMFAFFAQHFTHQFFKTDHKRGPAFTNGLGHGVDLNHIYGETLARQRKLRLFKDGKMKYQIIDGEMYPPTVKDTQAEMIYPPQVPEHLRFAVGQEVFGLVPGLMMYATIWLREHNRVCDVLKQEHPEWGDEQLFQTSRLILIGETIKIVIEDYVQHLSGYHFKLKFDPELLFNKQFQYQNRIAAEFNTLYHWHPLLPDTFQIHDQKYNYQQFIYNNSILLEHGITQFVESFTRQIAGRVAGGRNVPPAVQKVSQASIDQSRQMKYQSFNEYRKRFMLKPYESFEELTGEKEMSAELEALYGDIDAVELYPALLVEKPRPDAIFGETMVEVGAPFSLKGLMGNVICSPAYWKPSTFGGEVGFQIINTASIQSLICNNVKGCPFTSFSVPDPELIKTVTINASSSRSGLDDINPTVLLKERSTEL
Reported Metric: Ki (µM)
Give your result in µM as a bare value.

Ask: Please state recorded Ki (tested on Prostaglandin G/H synthase 2 (Homo sapiens) (UniProt P35354)) of C=C(/C=C\C)/C(CSc1nnc(-c2cc(-c3ccc(OC)cc3)nc3ccccc23)n1-c1ccccc1)=N\O
Result: 94.6

----------
target: Prostaglandin G/H synthase 2 (Ovis aries); experiment: Inhibition of ovine COX-2 by colorimetric inhibitor screening assay
Reported Metric: pIC50
Units for pIC50: none; it is -log10 of a concentration expressed in mol/L.

Ask: Reported pIC50 for CC1=C(CC(=O)Sc2ccccc2)c2cc(F)ccc2/C1=C\c1ccc([S+](C)[O-])cc1 (stereo unspecified) : what is it?
Result: 5.92

----------
Item-by-item account of IC50
target: Prostaglandin G/H synthase 2 (Ovis aries); experiment: Inhibition of ovine COX-2 using arachidonic acid as substrate measured after 2 mins by colorimetric enzyme immune assay
Give your result in nM as a bare value.

Ask: Reported IC50 for C/C(=N/Nc1ccc(C(=O)O)cc1)c1cccc(N2C(=O)c3ccccc3C2=O)c1 : what is it?
Result: 110

Ask: Follow-up entry: COc1ccc(/C=C/C(=O)c2cccc(N3C(=O)c4ccccc4C3=O)c2)cc1OC
Result: 170
